Reference source for all entries: the supplement of paper PMC8671470

tested on: KG-1; test: cell viability (% survival relative to DMSO control, bortezomib = 0%); higher = less cytotoxic; details: 1 nM; 72 h
# cell viability per record follows
The reply should be a number in %, with the unit left off.

Below: 5 molecules and their reported cell viability.
O=C(CCl)N(CCCNC(=O)C(F)(F)F)c1ccc([N+](=O)[O-])cc1 ... 109
Cc1cc(O)c2c(c1)C(=O)c1cc(O)cc(O)c1C2=O ... 90.7
Cn1cc(C[C@@H](N)C(=O)O)c2ccccc21 ... 107
CC(C)(CCCCCCCCCCC(C)(C)CC(=O)O)CC(=O)O ... 91.7
CN(C)C(=O)n1nnnc1Cc1ccc(-c2ccccc2)cc1 ... 93.7

The record that follows has no cell viability shown yet.
Given item `OCCN(CCO)c1nc(N2CCCCC2)c2nc(N(CCO)CCO)nc(N3CCCCC3)c2n1` , the value recorded as its cell viability is 94.7
